Source: patent US8778966B2

molecular target: TANK-2 enzyme (Homo sapiens); construct: made in house; experiment: In vitro Scintillation Proximity Assay (SPA) for TANK-2 inhibitory activity; type: biochemical; details: read-out: in vitro SPA assay TANK-2 pIC50 (converted)
Sequence (Q9H2K2 whole entry): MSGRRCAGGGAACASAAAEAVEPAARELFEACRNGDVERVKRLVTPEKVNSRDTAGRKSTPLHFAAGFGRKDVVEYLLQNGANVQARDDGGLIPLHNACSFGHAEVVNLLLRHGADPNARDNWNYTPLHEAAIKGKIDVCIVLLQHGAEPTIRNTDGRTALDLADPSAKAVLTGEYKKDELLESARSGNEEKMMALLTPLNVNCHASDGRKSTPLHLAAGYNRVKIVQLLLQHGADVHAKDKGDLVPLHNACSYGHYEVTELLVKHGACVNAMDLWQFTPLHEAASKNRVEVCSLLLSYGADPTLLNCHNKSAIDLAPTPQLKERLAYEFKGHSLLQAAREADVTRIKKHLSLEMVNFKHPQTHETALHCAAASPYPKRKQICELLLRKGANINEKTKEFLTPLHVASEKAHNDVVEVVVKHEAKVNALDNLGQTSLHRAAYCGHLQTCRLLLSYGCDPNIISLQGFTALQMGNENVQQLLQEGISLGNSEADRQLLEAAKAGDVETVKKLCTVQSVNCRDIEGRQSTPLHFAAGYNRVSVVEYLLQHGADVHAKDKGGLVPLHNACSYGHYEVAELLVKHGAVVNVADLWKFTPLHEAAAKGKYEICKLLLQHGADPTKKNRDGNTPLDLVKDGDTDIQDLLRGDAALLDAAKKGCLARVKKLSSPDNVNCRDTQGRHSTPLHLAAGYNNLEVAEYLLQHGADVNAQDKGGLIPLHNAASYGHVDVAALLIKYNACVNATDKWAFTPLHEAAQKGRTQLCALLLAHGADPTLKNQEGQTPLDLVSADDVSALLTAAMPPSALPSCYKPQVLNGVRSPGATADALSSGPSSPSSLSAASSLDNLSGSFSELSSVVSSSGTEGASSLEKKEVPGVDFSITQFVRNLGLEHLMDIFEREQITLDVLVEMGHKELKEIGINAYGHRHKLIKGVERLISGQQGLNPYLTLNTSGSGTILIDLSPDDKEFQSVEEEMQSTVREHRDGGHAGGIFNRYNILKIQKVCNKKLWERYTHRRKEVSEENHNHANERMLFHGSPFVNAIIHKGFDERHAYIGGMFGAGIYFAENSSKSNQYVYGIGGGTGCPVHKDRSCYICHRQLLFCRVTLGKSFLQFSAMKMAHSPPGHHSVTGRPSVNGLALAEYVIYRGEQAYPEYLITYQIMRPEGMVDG
Readout Name: IC50 (nM)

Answered examples (3):
Compound	IC50 / nM
CCc1cc2ccc(C(C)(C#N)Cc3cc4c(cc3Cl)OCO4)cc2[nH]c1=O (stereo not shown)	63.1
CCc1cc2ccc(C(C)(C#N)Cc3cccc(OCCO)c3)cc2[nH]c1=O (stereo not shown)	631
CCc1cc2ccc(C(C)(C#N)CCOc3ccc4ccccc4c3)cc2[nH]c1=O (stereo not shown)	316

P. CCc1cc2ccc(C(C#N)(CC)Cc3cccc(CN)c3)cc2[nH]c1=O (stereo not shown)
Q. CCc1cc2ccc(C(C#N)(CC)C3CCc4ccc(OC)cc43)cc2[nH]c1=O (stereo not shown)
R. Cc1cc2ccc([C@](C)(C#N)Cc3cccc(C#N)c3)cc2[nH]c1=O
S. CCc1cc2ccc([C@@](C)(C#N)[C@H]3CCOc4ccccc43)cc2[nH]c1=O (single isomer, unassigned)
Number of compounds to sort: 4. Sort criterion: IC50, ascending. Answer by listing the labels in the order asked for.
R, P, S, Q
(R: 200 nM, P: 316 nM, S: 501 nM, Q: 2510 nM)
